test system: DMS-273; assay: NCI tumour cell line growth inhibition, 48 h
Active and inactive are the calls of the source. Rule as the data show it: active = GI50 up to about 1.1 µM and inactive = higher.
Examples of compounds with documented GI50 follow.

compound | experimental.target | GI50
CCCCCn1cc2c3c(cccc31)C1C=C(C)CN(C)[C@@H]1C2.Cc1ccc(C(=O)OC(C(=O)O)C(OC(=O)c2ccc(C)cc2)C(=O)O)cc1 (stereo not given) | DMS-273 | 3.92 µM (inactive)
CCOC(=O)C1=C(Nc2ccccc2)SCC1=O | DMS-273 | > 100 µM (inactive)
Cc1nc2c(c(=O)[nH]1)S/C(=C(/C#N)c1nc3ccccc3[nH]1)N2c1ccccc1 | DMS-273 | > 100 µM (inactive)
COC(=O)/C(=N/NC(N)=O)C(C(=O)OC)C(=O)C(=O)Nc1ccc(Cl)cc1 (stereo not given) | DMS-273 | > 100 µM (inactive)
CC(=O)NC1=C(NCC(C)C)C(=O)c2ccccc2C1=O | DMS-273 | 14.4 µM (inactive)
CCOc1cccc2c1N[S@@](=O)S2 | DMS-273 | > 100 µM (inactive)
Cc1nc(N)nc(CCC(=O)Nc2cccc(C(F)(F)F)c2)c1-c1ccc(Cl)cc1 | DMS-273 | > 100 µM (inactive)
CC(C)(C)OC(=O)N1CC(C)(C)N2C(=O)C3(CCCO3)C12 (stereo not given) | DMS-273 | 37.8 µM (inactive)
N#[N+]c1ccccc1Sc1ccc(Cl)cc1 | DMS-273 | > 100 µM (inactive)
C1=CC=C2NCCC/N=C3/C=CC=CC=C3NCCC/N=C\2C=C1 | DMS-273 | > 100 µM (inactive)

---

Listing of entries alongside the reported GI50.
tested on: K562; assay: NCI tumour cell line growth inhibition, 48 h
The source made the active and inactive calls. Cut-off read from the data, not from the text of the source: active = GI50 up to about 1.1 µM and inactive = higher.

compound | GI50
O=C1C=C(c2ccccc2)O/C1=C\C(=O)c1ccc(Cl)cc1 | 22.2 µM (inactive)
C[C@H]1CC[C@@]2(NC1)O[C@H]1C[C@H]3[C@@H]4CC[C@H]5C[C@@H](O)CC[C@]5(C)[C@H]4CC[C@]3(C)[C@H]1[C@@H]2C | > 100 µM (inactive)
O=C(NCCCN(CCCCN(CCCNC(=O)c1cc(S(=O)(=O)O)cc(O)c1O)C(=O)c1cc(S(=O)(=O)O)cc(O)c1O)C(=O)c1cc(S(=O)(=O)O)cc(O)c1O)c1cc(S(=O)(=O)O)cc(O)c1O | > 100 µM (inactive)
O=S(=O)(O)C(F)(F)C(F)(F)C(F)(F)C(F)(F)F | > 100 µM (inactive)
O=c1cc(-c2ccccc2)oc2cc(OCCCCCCCCCCOc3ccc4c(=O)cc(-c5ccccc5)oc4c3)ccc12 | > 100 µM (inactive)
Cc1cc(C)c2c(c1)CC1(Cc3cc(C)c(C)cc3C1=O)C2=O (stereo not drawn) | > 100 µM (inactive)
CC(C)NC(=O)OCc1c(COC(=O)NC(C)C)c(-c2ccc[n+](COC(=O)C(C)(C)C)c2)n2c1CCC2 | 99.8 µM (inactive)
O=C(c1ccccc1)c1cc(-c2ccccc2)c(-c2ccccc2)[nH]c(=O)c1=O | 32.6 µM (inactive)

---

test system: ACHN; experiment: NCI tumour cell line growth inhibition, 48 h
Calls of active or inactive are those of the source. Rule as the data show it: active = GI50 up to about 1.1 µM and inactive = higher.
Classes used: y for active, n for inactive

compound | experimental.target | label.value
CC(=O)C(C(c1ccccc1)N1CCOCC1)N1CCOCC1 (stereo not given) | ACHN | n
COC1OC2COC(c3ccccc3)OC2C(O)C1Br (stereo not given) | ACHN | n
O=C(c1cccnc1)N1N=C(c2ccccc2)CC1(O)c1cc(F)c(Cl)cc1Cl (stereo not given) | ACHN | n
Nc1ncnc2c1ncn2C1CC(OC2CCCCO2)C(CO)O1 (stereo not given) | ACHN | n
CC(=O)NC1=C(C)C(=O)c2c(nc3n2CCC3O)C1=N (stereo not given) | ACHN | n
Cc1cc2c(C)n(Cc3ccccc3Cl)nc2c(C(=O)O)c1C | ACHN | n
c1ccc(SC(CCCCOC2CCCCO2)Sc2ccccc2)cc1 (stereo not given) | ACHN | n
O=C1NC(Cc2c[nH]c3ccccc23)C(=O)N2C(C3CCCCC3)c3[nH]c4ccccc4c3C[C@@H]12 (stereo not given in full) | ACHN | n
O=C(NC(=O)c1cn(CCN2CCN(C(=O)NCCCCCCNC(=O)N3CCN(CCn4cc(C(=O)NC(=O)OCc5ccccc5)c(=O)[nH]c4=O)CC3)CC2)c(=O)[nH]c1=O)OCc1ccccc1 | ACHN | n
CC1(C)[C@@H]2C[C@H]1C(Cc1ccc(C[C@H]3c4cc(-c5ccccn5)ncc4[C@H]4C[C@@H]3C4(C)C)cc1)c1cc(-c3ccccn3)ncc12 (stereo not given in full) | ACHN | y

Numbers sourced from ChEMBL document CHEMBL1201862.
